Values were extracted from the supplement of paper PMC7877785.

Experiment: self-splicing fitness, log relative to wild type (ln ratio); higher = more splicing; Tetrahymena group I intron in knt gene, E. coli kanamycin selection, DiMSum; sequences stand for … in CUCUCU…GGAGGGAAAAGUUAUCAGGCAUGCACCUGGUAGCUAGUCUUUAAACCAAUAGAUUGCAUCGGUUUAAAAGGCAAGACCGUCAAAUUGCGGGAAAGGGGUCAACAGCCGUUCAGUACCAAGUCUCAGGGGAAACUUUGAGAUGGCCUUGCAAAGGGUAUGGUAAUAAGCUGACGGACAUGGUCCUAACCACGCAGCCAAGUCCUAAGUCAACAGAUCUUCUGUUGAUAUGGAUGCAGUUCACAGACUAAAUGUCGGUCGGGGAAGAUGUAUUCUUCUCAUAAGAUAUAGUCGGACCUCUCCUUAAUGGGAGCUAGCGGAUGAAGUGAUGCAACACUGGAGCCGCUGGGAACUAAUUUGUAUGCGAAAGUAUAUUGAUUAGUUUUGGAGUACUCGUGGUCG;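 also: selection with 25 µg/mL kanamycin versus none on LB agar overnight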
Settings: 37 °C
# self-splicing fitness (ln) >= -1 gives yes, anything below gives no

Examples with answers:
GUGUAGCAAUAUUACGCAUU ... no
CAUGAGCAAUAUUACGCAAC ... no
GUCCAGCAAUAUUACGCUUG ... no
UUGUAGCAAUAUUACGACGG ... no
AAUAAGCAAUAUUACGAACA ... yes

In plain terms: is recorded self-splicing fitness (ln) at least -1 for AGCGAGCAAUAUUACGUUGC ?
no

Can you check CUGUAGCAAUAUUACGCGCA next?
no

Can you check CUUGAGCAAUAUUACGCGAU next?
yes

----------
Assay: self-splicing fitness, log relative to wild type (ln ratio); higher = more splicing; Tetrahymena group I intron in knt gene, E. coli kanamycin selection, DiMSum; sequences stand for … in CUCUCU…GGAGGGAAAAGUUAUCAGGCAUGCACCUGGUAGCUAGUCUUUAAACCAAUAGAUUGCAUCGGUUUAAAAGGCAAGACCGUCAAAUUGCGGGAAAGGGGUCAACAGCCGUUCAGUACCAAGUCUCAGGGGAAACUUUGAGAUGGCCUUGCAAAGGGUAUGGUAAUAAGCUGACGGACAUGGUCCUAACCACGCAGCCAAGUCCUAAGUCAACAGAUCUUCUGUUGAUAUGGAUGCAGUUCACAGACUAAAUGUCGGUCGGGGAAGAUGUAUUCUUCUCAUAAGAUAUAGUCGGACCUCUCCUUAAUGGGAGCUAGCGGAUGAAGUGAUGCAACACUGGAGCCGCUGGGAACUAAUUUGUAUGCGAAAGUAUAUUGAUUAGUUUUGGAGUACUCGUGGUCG
Conditions: 30 °C
Each entry falls into one class according to its self-splicing fitness (ln); the ranges are low = under -2, moderate = from -2 up to -1, high = -1 and over

CUGAAGCAAUAUUACGCCAA ... low
CGUAAGCAAUAUUACGCAUG ... moderate
UGGUAGCAAUAUUACGAACU ... high
CGAUAGCAAUAUUACGUCCC ... moderate
CAAUAGCAAUAUUACGGUGG ... high
GAGGAGCAAUAUUACGGCGA ... moderate
GCCUAGCAAUAUUACGGUGG ... low
CUACAGCAAUAUUACGCACG ... high
ACCAAGCAAUAUUACGUCGG ... low
AUACAGCAAUAUUACGGCAG ... low

Bin? UGACAGCAAUAUUACGAGGC
low

Can you check GACCAGCAAUAUUACGUAGU next?
high

Can you check UUGCAGCAAUAUUACGCGUC next?
low

Can you check AUACAGCAAUAUUACGCCUG next?
moderate

----------
Experiment: self-splicing fitness, log relative to wild type (ln ratio); higher = more splicing; Tetrahymena group I intron in knt gene, E. coli kanamycin selection, DiMSum; sequences stand for … in CUCUCU…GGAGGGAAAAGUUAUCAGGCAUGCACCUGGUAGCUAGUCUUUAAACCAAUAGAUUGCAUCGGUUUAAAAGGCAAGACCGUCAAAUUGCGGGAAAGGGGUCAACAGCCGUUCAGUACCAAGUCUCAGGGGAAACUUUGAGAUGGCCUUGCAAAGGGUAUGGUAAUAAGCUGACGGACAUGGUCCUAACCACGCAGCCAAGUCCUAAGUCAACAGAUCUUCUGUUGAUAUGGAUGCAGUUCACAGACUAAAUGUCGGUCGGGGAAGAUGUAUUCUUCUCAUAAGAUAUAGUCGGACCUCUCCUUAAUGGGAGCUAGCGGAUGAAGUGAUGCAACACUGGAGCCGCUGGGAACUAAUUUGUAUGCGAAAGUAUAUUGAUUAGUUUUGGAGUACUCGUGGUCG
Details: 30 °C
# self-splicing fitness (ln) >= -2 gives True, anything below gives False

UUCAAGCAAUAUUACGCAGA ... False

In plain terms: is recorded self-splicing fitness (ln) at least -2 for AUCUAGCAAUAUUACGGGGA ?
True

Can you check AUGGAGCAAUAUUACGCCGG next?
False

Can you check AUUUAGCAAUAUUACGGCCA next?
True

Can you check GUGAAGCAAUAUUACGUUUA next?
True

Can you check AUCCAGCAAUAUUACGCGAC next?
False

Can you check AAACAGCAAUAUUACGAGCG next?
True

----------
Assay: self-splicing fitness, log relative to wild type (ln ratio); higher = more splicing; Tetrahymena group I intron in knt gene, E. coli kanamycin selection, DiMSum; sequences stand for … in CUCUCU…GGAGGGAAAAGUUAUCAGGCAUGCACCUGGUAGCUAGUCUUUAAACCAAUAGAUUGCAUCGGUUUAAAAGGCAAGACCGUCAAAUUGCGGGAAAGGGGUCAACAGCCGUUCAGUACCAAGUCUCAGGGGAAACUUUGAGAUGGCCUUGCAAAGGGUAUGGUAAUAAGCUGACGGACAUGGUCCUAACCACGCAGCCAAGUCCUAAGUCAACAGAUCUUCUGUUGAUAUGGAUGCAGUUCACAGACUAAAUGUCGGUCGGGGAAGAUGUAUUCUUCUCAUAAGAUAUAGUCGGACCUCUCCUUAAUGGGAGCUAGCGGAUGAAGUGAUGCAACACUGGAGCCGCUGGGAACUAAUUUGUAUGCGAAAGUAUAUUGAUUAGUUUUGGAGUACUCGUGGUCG
Conditions: 30 °C
# self-splicing fitness (ln) >= -2 gives condition met, anything below gives condition not met

Examples with answers:
UUUCAGCAAUAUUACGAUAG ... condition met
UUCCAGCAAUAUUACGACCU ... condition not met
UCAGAGCAAUAUUACGGCGC ... condition met
CCCCAGCAAUAUUACGGUCG ... condition not met
AUCAAGCAAUAUUACGUGUU ... condition not met
UUCAAGCAAUAUUACGGACA ... condition met

Attention now shifts to the item below.
In plain terms: is recorded self-splicing fitness (ln) at least -2 for ACGAAGCAAUAUUACGUUGA ?
condition not met

----------
Assay: self-splicing fitness, log relative to wild type (ln ratio); higher = more splicing; Tetrahymena group I intron in knt gene, E. coli kanamycin selection, DiMSum; sequences stand for … in CUCUCU…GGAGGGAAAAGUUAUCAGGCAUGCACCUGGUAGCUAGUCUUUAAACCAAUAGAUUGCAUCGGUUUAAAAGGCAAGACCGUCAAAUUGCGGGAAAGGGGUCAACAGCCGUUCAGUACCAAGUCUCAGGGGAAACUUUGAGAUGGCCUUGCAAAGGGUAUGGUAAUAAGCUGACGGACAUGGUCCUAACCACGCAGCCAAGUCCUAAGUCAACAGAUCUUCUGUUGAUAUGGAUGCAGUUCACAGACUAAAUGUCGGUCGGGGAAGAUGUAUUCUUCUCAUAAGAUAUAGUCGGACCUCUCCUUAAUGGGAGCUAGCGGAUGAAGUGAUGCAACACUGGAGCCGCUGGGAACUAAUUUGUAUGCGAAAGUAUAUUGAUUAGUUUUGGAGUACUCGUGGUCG
Details: 30 °C
# self-splicing fitness (ln) >= -3 gives 1, anything below gives 0

In plain terms: is recorded self-splicing fitness (ln) at least -3 for AGCGAGCAAUAUUACGACGU ?
1

Can you check GAUGAGCAAUAUUACGAGCU next?
0

Can you check GCGCAGCAAUAUUACGAUCU next?
1

Can you check AGAAAGCAAUAUUACGUGGG next?
0

Can you check AAUUAGCAAUAUUACGAUUG next?
1

Can you check CGGUAGCAAUAUUACGGUGA next?
0

Can you check AUCGAGCAAUAUUACGCAAG next?
0

Can you check UCGCAGCAAUAUUACGUUCC next?
1

Can you check UAGUAGCAAUAUUACGCAUA next?
1

Can you check GCGGAGCAAUAUUACGUCCG next?
1

Can you check CGCCAGCAAUAUUACGUGAC next?
0

Can you check ACGUAGCAAUAUUACGCUCU next?
1

Can you check GAUCAGCAAUAUUACGCACG next?
1
